Provide the reported CC50 of each item.
- experiment-notes: in vitro
- details: human

{"compound": "CCOc1ccc(C2c3[nH]c4ccccc4c3CCN2C(=O)C2CCC2)cc1 (centres unmarked) [Compound C1]", "readout-value": "> 100 µM"}

Record summary for COc1ccc(Nc2nc(-c3nnn(-c4ccc(Br)cc4F)c3C)ns2)cc1 [Z] : reported CC50 = > 100 µM

FYI, the data here is from paper PMC8631057.
